systemName: S1P5 (Homo sapiens)
testName: [35S]-GTPγS binding assay (S1P5 agonism), CHO cell membranes
protocolConditions: membranes of CHO cells expressing recombinant S1P5 receptors, measure of S1P5 agonism
pEC50: −log10 of the molar value.
observationType: pEC50

The cases that follow already have their pEC50 on record.
O=C(O)C1CN(C2CCc3cc(OCc4cc(F)cc(F)c4F)ccc32)C1 (centres unmarked) [Compound 18]	7.00 to 8.00
Cc1cc2c(cc1OCc1c(Cl)cccc1Cl)CCC2N1CCC(C(=O)O)CC1 (centres unmarked) [Compound 37]	8.00 to 9.00
O=C(O)C1CN(C2CCc3cc(OCc4ccc(C5CC5)c(Cl)c4)ccc32)C1 (centres unmarked) [Compound 10]	7.00 to 8.00
O=C(O)C1CCN(C2CCc3cc(OCc4c(Cl)cccc4Cl)c(F)cc32)CC1 (centres unmarked) [Compound 33]	8.00 to 9.00

Now consider the entry below.
Lab entry: S1P5 (Homo sapiens) assay, compound CC1(C)CC(N2CCC(C(=O)O)CC2)c2ccc(OCc3c(Cl)cccc3Cl)cc21 (centres unmarked) [Compound 39] , pEC50 = 7.00 to 8.00

* * *

systemName: S1P5 (Homo sapiens, UniProt Q9H228)
Sequence (Q9H228 whole entry, species assumed): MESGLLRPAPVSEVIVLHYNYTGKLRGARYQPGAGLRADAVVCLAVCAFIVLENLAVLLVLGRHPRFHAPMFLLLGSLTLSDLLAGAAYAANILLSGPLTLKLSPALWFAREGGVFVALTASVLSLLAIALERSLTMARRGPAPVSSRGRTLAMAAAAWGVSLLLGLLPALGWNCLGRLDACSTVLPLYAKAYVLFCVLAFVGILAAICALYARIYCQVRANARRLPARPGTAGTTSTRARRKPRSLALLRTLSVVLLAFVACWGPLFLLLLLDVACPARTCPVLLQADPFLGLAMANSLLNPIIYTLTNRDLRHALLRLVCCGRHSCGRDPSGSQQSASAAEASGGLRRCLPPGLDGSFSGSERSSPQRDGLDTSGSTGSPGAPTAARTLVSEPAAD
testName: [35S]-GTPγS binding assay (S1P5 agonism), CHO cell membranes
protocolConditions: membranes of CHO cells expressing recombinant S1P5 receptors, measure of S1P5 agonism
Experimental: CHO cells expressing recombinant S1P5 receptors were cultured in 500 cm^2 culture trays and, once confluent, rinsed and detached with cell-lifting buffer (10 mM HEPES, 154 mM NaCl, 6.85 mM EDTA, pH 7.4). […] Functional binding assays for [^35S]-GTPγS were performed in 96-well non-binding surface plates with a final volume of 200 μL. […] As G protein bound radioactivity directly correlates to receptor activation and coupling to the G protein, this assay is a measure of S1P5 agonism.
pEC50: −log10 of the molar value.
Let's look at some compounds and their measured pEC50.

O=C(O)C1CN(C2CCc3cc(OCc4ccccc4F)ccc32)C1 (stereo not shown)	7.00 to 8.00
O=C(O)C1CN(C2CCc3cc(OCc4ccc(C5CC5)cc4Cl)ccc32)C1 (stereo not shown)	7.00 to 8.00
O=C(O)[C@H]1CCN(C2CCc3cc(OCc4c(Cl)cccc4Cl)ccc32)C1 (single isomer, unassigned) [Compound 24b]	8.00 to 9.00

Now consider the entry below.
Record Cc1c(OCc2c(Cl)cccc2Cl)ccc2c1CCC2N1CCC(C(=O)O)CC1 (stereo not shown) . Reported pEC50: ≥ 9.00

* * *

systemName: UniProt:Q9H228
testName: [35S]-GTPγS binding assay (S1P5 agonism), CHO cell membranes
protocolConditions: membranes of CHO cells expressing recombinant S1P5 receptors, measure of S1P5 agonism
Protocol: CHO cells expressing recombinant S1P5 receptors were cultured in 500 cm^2 culture trays and, once confluent, rinsed and detached with cell-lifting buffer (10 mM HEPES, 154 mM NaCl, 6.85 mM EDTA, pH 7.4). […] Functional binding assays for [^35S]-GTPγS were performed in 96-well non-binding surface plates with a final volume of 200 μL. […] As G protein bound radioactivity directly correlates to receptor activation and coupling to the G protein, this assay is a measure of S1P5 agonism.
observationType: EC50

The cases that follow already have their EC50 on record.
O=C(O)C1CCN(C2CCc3cc(OCc4c(Cl)cccc4Cl)cc(F)c32)CC1 (centres unmarked)	1 to 10 nM
CC1CC(C(=O)O)CC(C)N1C1CCc2cc(OCc3c(Cl)cccc3Cl)ccc21 (centres unmarked)	10 to 100 nM
CC1CC(N2CCC(C(=O)O)CC2)c2ccc(OCc3c(Cl)cccc3Cl)cc21 (centres unmarked)	1 to 10 nM

Record O=C(O)C1CN(C2CCc3cc(OCc4cc(F)c(F)cc4F)ccc32)C1 (centres unmarked) . Reported EC50: 1 to 10 nM

Record O=C(O)C1CN(C2CCc3cc(OCc4cccc(F)c4)ccc32)C1 (centres unmarked) . Reported EC50: 10 to 100 nM

Record O=C(O)C1CN(C2CCc3cc(OCc4ccc(F)cc4)ccc32)C1 (centres unmarked) . Reported EC50: 10 to 100 nM

Record O=C(O)C1CN(C2CCc3cc(OCc4ccc(F)c(Cl)c4)ccc32)C1 (centres unmarked) . Reported EC50: 10 to 100 nM

Record O=C(O)C1CC2(C1)CN(C1CCc3cc(OCc4c(Cl)cccc4Cl)ccc31)C2 (centres unmarked) . Reported EC50: 1 to 10 nM

* * *

Let's look at some compounds and their measured pEC50.
systemName: S1P5 (Homo sapiens, UniProt Q9H228)
testName: [35S]-GTPγS binding assay (S1P5 agonism), CHO cell membranes
protocolConditions: membranes of CHO cells expressing recombinant S1P5 receptors, measure of S1P5 agonism
pEC50: −log10 of the molar value.

O=C(O)C1CN(C2CCc3cc(OCc4ccc(F)c(F)c4)ccc32)C1 (stereo not shown)	7.00 to 8.00

Lab entry: S1P5 (Homo sapiens, UniProt Q9H228) assay, compound O=C(O)C1CN(C2CCc3cc(OCc4ccc(C5CC5)cc4F)ccc32)C1 (stereo not shown) , pEC50 = 7.00 to 8.00

Lab entry: S1P5 (Homo sapiens, UniProt Q9H228) assay, compound O=C(O)C1CCN(C2CCc3cc(OCc4cccc(C(F)(F)F)c4)ccc32)CC1 (single isomer, unassigned) [Compound 26a] , pEC50 = 7.00 to 8.00

Lab entry: S1P5 (Homo sapiens, UniProt Q9H228) assay, compound Cc1ccc(COc2ccc3c(c2)CCC3N2CC(C(=O)O)C2)cc1Cl (stereo not shown) , pEC50 = 8.00 to 9.00

Lab entry: S1P5 (Homo sapiens, UniProt Q9H228) assay, compound O=C(O)C1CN(C2CCc3cc(OCc4cccc(I)c4)ccc32)C1 (stereo not shown) , pEC50 = 7.00 to 8.00

Lab entry: S1P5 (Homo sapiens, UniProt Q9H228) assay, compound CC1(C(=O)O)CCN(C2CCc3cc(OCc4c(Cl)cccc4Cl)ccc32)CC1 (stereo not shown) , pEC50 = 7.00 to 8.00

Lab entry: S1P5 (Homo sapiens, UniProt Q9H228) assay, compound Cc1ccc(COc2ccc3c(c2)CCC3N2CC(C(=O)O)C2)cc1C(F)(F)F (stereo not shown) , pEC50 = 7.00 to 8.00

Lab entry: S1P5 (Homo sapiens, UniProt Q9H228) assay, compound O=C(O)C1CN(C2CCc3cc(OCc4cc(F)ccc4F)ccc32)C1 (stereo not shown) , pEC50 = 7.00 to 8.00

Lab entry: S1P5 (Homo sapiens, UniProt Q9H228) assay, compound Cc1ccc(COc2ccc3c(c2)CCC3N2CC(C(=O)O)C2)c(Cl)c1 (stereo not shown) , pEC50 = 8.00 to 9.00

Lab entry: S1P5 (Homo sapiens, UniProt Q9H228) assay, compound CC(C)Oc1ccc(COc2ccc3c(c2)CCC3N2CC(C(=O)O)C2)cc1C(F)(F)F (stereo not shown) , pEC50 = 8.00 to 9.00

Lab entry: S1P5 (Homo sapiens, UniProt Q9H228) assay, compound O=C(O)C1CCN(C2CCc3cc(OCc4cccc(C(F)(F)F)c4)ccc32)CC1 (single isomer, unassigned) [Compound 26b] , pEC50 = 6.00 to 7.00

Lab entry: S1P5 (Homo sapiens, UniProt Q9H228) assay, compound O=C(O)[C@@H]1CCN(C2CCc3cc(OCc4c(Cl)cccc4Cl)ccc32)C1 (single isomer, unassigned) [Compound 25b] , pEC50 = 8.00 to 9.00

Lab entry: S1P5 (Homo sapiens, UniProt Q9H228) assay, compound CC1CC(C(=O)O)CCN1C1CCc2cc(OCc3c(Cl)cccc3Cl)ccc21 (stereo not shown) , pEC50 = 7.00 to 8.00

Lab entry: S1P5 (Homo sapiens, UniProt Q9H228) assay, compound O=C(O)C1CN(C2CCc3cc(OCc4ccc(C5CC5)c(C(F)(F)F)c4)ccc32)C1 (stereo not shown) , pEC50 = 8.00 to 9.00

Lab entry: S1P5 (Homo sapiens, UniProt Q9H228) assay, compound O=C(O)[C@@H]1CCN(C2CCc3cc(OCc4c(Cl)cccc4Cl)ccc32)C1 (single isomer, unassigned) [Compound 25a] , pEC50 = 8.00 to 9.00

Lab entry: S1P5 (Homo sapiens, UniProt Q9H228) assay, compound O=C(O)C1CN(C2CCc3cc(OCc4ccc(F)cc4F)ccc32)C1 (stereo not shown) , pEC50 = 7.00 to 8.00

* * *

systemName: S1P5 (Homo sapiens)
testName: [35S]-GTPγS binding assay (S1P5 agonism), CHO cell membranes
Type: biochemical
protocolConditions: membranes of CHO cells expressing recombinant S1P5 receptors, measure of S1P5 agonism
Let's look at some molecules and their measured EC50.

Record CC1(C)CC(C(=O)O)CCN1C1CCc2cc(OCc3c(Cl)cccc3Cl)ccc21 (stereo not drawn) . Reported EC50: 0.01 to 0.1 µM

Record Cc1cc(OCc2c(Cl)cccc2Cl)cc2c1C(N1CCC(C(=O)O)CC1)CC2 (stereo not drawn) . Reported EC50: ≤ 0.001 µM

Record O=C(O)C1CN(C2CCc3cc(OCc4ccc(I)cc4)ccc32)C1 (stereo not drawn) . Reported EC50: 0.1 to 1 µM

Record O=C(O)C1CCN(C2CCc3c2ccc(OCc2c(Cl)cccc2Cl)c3F)CC1 (stereo not drawn) . Reported EC50: ≤ 0.001 µM

Record O=C(O)[C@H]1CCN(C2CCc3cc(OCc4c(Cl)cccc4Cl)ccc32)C1 (single isomer, unassigned) [Compound 24a] . Reported EC50: 0.01 to 0.1 µM

Record O=C(O)[C@@H]1[C@@H]2CN(C3CCc4cc(OCc5c(Cl)cccc5Cl)ccc43)C[C@@H]21 (stereo partly drawn) . Reported EC50: 0.001 to 0.01 µM

Record Cc1ccc(COc2ccc3c(c2)CCC3N2CC(C(=O)O)C2)c(F)c1 (stereo not drawn) . Reported EC50: 0.01 to 0.1 µM

Record CC(C)Oc1ccc(COc2ccc3c(c2)CCC3N2CC(C(=O)O)C2)cc1C#N (stereo not drawn) . Reported EC50: 0.01 to 0.1 µM

Record O=C(O)[C@H]1[C@@H]2CN(C3CCc4cc(OCc5c(Cl)cccc5Cl)ccc43)C[C@@H]21 (stereo partly drawn) . Reported EC50: 0.1 to 1 µM

Provenance of the data: patent US20240376048A1
